- experimental.system: T1, Insulin receptor prepared according to Bass et al., 1996: soluble human insulin receptor-immunoglobulin heavy … (human, UniProt P06213 28-956)
- T1 construct: extracellular domain; Eu3+-labelled in TR-FRET; also called IR; sIR-Fc; not shown: immunoglobulin heavy chain constant domains that replace the transmembrane and i
- run.description: phage ELISA, vs IGF-1R
Positions of bridges follow the written chain, without caps; N, C: chain ends. No end group written: not given here.
quantity.name: IR/IGF-1R Comparison (ratio)
Give bare numbers, in ratio.

Here's what some known entries look like.
[[record]]
binder = "KLHNLMFYYGLQRLVWGAGLG [20E2B-4-H3-IGFR]"
unit_label = "ratio"
measured = 0.1

[[record]]
binder = "VGYQGQGDENFYDWFIRQVSGRLGVQ [H2CA-4-F5-IGFR]"
unit_label = "ratio"
measured = 0.1

[[record]]
binder = "RGQSDAFYSGLWALIGLSDG [R20β-4-A6-IR]"
unit_label = "ratio"
measured = 0.1

[[record]]
binder = "QFYGCLLDLSLGVPSFGWRRRCITA (disulfide 5-22 (inferred)) [20C-3-A4-IGFR]"
unit_label = "ratio"
measured = 0.1

[[record]]
binder = "GFREGNFYEWFQAQVT [E4Da-4-H2-IR]"
unit_label = "ratio"
measured = 0.2


Report IR/IGF-1R Comparison for each item below.
1. GGTKAVAKVGTRDDPFYHKLSELLQGS [H6Hα-4-G8-IR]
2. VATSQGFYSGLSELLQGGGNV [20E2H-3-E12-IGFR]
3. ASSASGFYELLQRLAGLGLEV [20E2B-3-C4-1GFR]
4. LGYQEPFQQNFYDWFVRQVSGAENAG [E2CA-3-E8-IGFR]
5. SRAKVEAEMPDSGDPFYHKLSELLASG [B6Hα-1-A3-IR]
6. DSVGDNFYQLLESLVGGHGVG [20E28-3-D6-IGFR]

[0.3, 0.1, 0.2, 0.3, 0.3, 0.1]

Report IR/IGF-1R Comparison for each item below.
1. LSVALSFYDALGQLVAGEGRW [20E2A-3-A12-IGFR]
2. QPDHSYFYSLLQELVGSEERL [20E2B-4-F9-IGFR]

0.3
0.1
